Biological target: ATF6 (Homo sapiens)
Construct: endogenous in cells; host or cells: U2-OS (ATCC HTB-96) stably transduced with the Cignal Lenti ATF6 luc reporter (Qiagen #CLS-6031L)
Sequence (P18850 whole entry): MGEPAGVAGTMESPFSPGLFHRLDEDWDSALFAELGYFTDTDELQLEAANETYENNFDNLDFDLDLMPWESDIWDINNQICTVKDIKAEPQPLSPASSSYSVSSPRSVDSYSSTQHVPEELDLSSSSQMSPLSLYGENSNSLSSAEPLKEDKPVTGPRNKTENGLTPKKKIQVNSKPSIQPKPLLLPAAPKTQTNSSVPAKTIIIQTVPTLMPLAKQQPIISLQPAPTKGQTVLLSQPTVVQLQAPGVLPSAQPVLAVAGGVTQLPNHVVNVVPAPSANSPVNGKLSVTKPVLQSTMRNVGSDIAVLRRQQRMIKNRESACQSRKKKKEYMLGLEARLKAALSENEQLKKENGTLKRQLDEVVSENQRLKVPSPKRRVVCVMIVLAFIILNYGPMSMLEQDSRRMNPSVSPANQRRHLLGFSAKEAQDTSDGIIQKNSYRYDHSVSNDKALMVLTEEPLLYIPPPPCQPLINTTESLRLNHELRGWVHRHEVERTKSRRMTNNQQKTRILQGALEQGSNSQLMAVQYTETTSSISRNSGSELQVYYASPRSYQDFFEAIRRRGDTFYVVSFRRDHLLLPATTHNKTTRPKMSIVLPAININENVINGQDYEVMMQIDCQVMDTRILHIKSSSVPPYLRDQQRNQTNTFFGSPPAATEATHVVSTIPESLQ
Test: ERSE ATF6-luciferase assay in presence of Tg-induced ER stress (U2-OS ATF6 TRE-luciferase reporter cells)
Format: cell-based
Settings: U2OS, 8 h, 1 μM test compound, in presence of ER stress (thapsigargin), Tg only = 100%, Table 2-3
List of activity at 1 µM values.

As a guide, the following entries are already answered.
INSERT INTO measurements (compound, quantity_measured, value_reported) VALUES
  ('O=C(Nc1cnn(C2CCCC2)c1)c1cc(-c2ccco2)on1', 'activity at 1 µM', '> 150%'),
  ('O=C(Nc1cnn(C2CCOC2)c1)c1cc(-c2cccs2)on1 (stereo not shown)', 'activity at 1 µM', '> 150%'),
  ('O=C(Nc1cnn(C2CNC2)c1)c1cc(-c2ccco2)on1', 'activity at 1 µM', '125 to 150%'),
  ('O=C(Nc1cnn(CC2CCCC2)c1)c1cc(-c2ccco2)on1', 'activity at 1 µM', '> 150%'),
  ('O=C(Nc1cnn(C2CCNC2)c1)c1cc(-c2ccco2)on1 (stereo not shown)', 'activity at 1 µM', '125 to 150%');

Ask | Dear colleague, please send me the reported activity at 1 µM for O=C(Nc1cnn(Cc2c(Cl)cncc2Cl)c1)c1cc(-c2ccco2)on1 when you can.
Reply | 100 to 125%

Ask | Dear colleague, please send me the reported activity at 1 µM for CC(C1CCCC1)n1cc(NC(=O)c2cc(-c3ccco3)on2)cn1 (stereo not shown) when you can.
Reply | 125 to 150%
